pA2 values by entry
Target: Serotonin (5-HT) receptor
Experiment: Binding affinity at rat 5-hydroxytryptamine receptor.
Assay type: protein assay
The reply should be a number, written without any unit.

Examples from the recorded data:
COc1cc([N+](=O)[O-])c(OC)cc1CC(C)N (racemic) ... 7.07
COc1cc(C[C@@H](C)N)c(OC)cc1I ... 7.63
COc1cc(CC(C)N)c(OC)cc1F (racemic) ... 7.2
COc1cc([N+](=O)[O-])c(OC)cc1C[C@@H](C)N ... 7.49

query: Entry CCOc1cc(OC)c(CC(C)N)cc1OC (racemic) : reported pA2 = ?
result: 6.78

query: Try COc1cc(CC(C)N)c(OC)cc1I (racemic) next.
result: 7.49

====

System: Rattus norvegicus
Experiment: Dose required to produce 50% hallucinogenic potency in rat was determined at a dose of 0.25 mg/kg
Type: functional
readout: DOM (%)
Write the number in % without appending the unit.

COc1cc(CC(C)N)c(OC)cc1I (racemic) ... 31

query: Entry `COc1cc(C[C@@H](C)N)c(OC)cc1I` : reported DOM = ?
result: 47

query: Try COc1cc(CC(C)N)c(OC)cc1Br (racemic) [BROLAMFETAMINE] next.
result: 70

query: Try CCc1cc(OC)c(CC(C)N)cc1OC (racemic) next.
result: 44

====

System: Rattus norvegicus
Experiment: Number of rats responding out of 5 treated rats at a dose of 1 mg/Kg
Type: functional
No. of animals values by entry

Examples from the recorded data:
COc1ccc(C[C@@H](C)N)cc1 ... 3
COc1cc(CC(C)N)c(OC)cc1F (racemic) ... 5

query: Entry COc1cc(Br)c(OC)c(CC(C)N)c1 (racemic) : reported No. of animals = ?
result: 5

query: Try COc1cc([N+](=O)[O-])c(OC)cc1CC(C)N (racemic) next.
result: 4

query: Try COc1cc(CC(C)N)c(OC)cc1I (racemic) next.
result: 5

query: Try CC(N)Cc1ccccc1 (racemic) next.
result: 5

query: Try `COc1cc([N+](=O)[O-])c(OC)cc1C[C@@H](C)N` next.
result: 5

query: Try COc1ccc(CC(C)N)cc1 (racemic) next.
result: 4

====

DOM values by entry
System: Rattus norvegicus
Assay: Dose required to produce 50% hallucinogenic potency in rat was determined at a dose of 0.75 mg/kg
Assay type: functional
Show the value, then the unit it is measured in.

Examples from the recorded data:
COc1cc(CC(C)N)c(OC)cc1I (racemic) ... 80%
COc1cc(C[C@H](C)N)c(OC)cc1Br ... 35%
COc1cc(C[C@@H](C)N)c(OC)cc1I ... 96%

query: Find DOM (Rattus norvegicus) for the entry COc1cc(CC(C)N)c(OC)cc1F (racemic)
result: 25%

query: Try `COc1cc([N+](=O)[O-])c(OC)cc1C[C@@H](C)N` next.
result: 61%

====

DOM values by entry
Test system: Rattus norvegicus
Assay: Dose required to produce 50% hallucinogenic potency in rat was determined at a dose of 0.5 mg/kg
Assay type: functional
Write the number in % without appending the unit.

Examples from the recorded data:
COc1ccc(CC(C)N)cc1 (racemic) ... 13
COc1cc(CC(C)N)c(OC)cc1F (racemic) ... 6
COc1cc(CC(C)N)c(OC)cc1I (racemic) ... 41
COc1cc(C[C@H](C)N)c(OC)cc1Br ... 20
COc1cc([N+](=O)[O-])c(OC)cc1CC(C)N (racemic) ... 32
COc1cc(C[C@@H](C)N)c(OC)cc1I ... 75

query: Find DOM (Rattus norvegicus) for the entry CCc1cc(OC)c(CC(C)N)cc1OC (racemic)
result: 99

query: Try `COc1cc([N+](=O)[O-])c(OC)cc1C[C@@H](C)N` next.
result: 44

query: Try `COc1ccc(C[C@@H](C)N)cc1` next.
result: 18

query: Try COc1cc(CC(C)N)c(OC)cc1Br (racemic) next.
result: 91
